target: UniProt:P27338; assay: Inhibition of MAO-B (unknown origin) assessed as inhibition constant
Sequence (P27338 whole entry): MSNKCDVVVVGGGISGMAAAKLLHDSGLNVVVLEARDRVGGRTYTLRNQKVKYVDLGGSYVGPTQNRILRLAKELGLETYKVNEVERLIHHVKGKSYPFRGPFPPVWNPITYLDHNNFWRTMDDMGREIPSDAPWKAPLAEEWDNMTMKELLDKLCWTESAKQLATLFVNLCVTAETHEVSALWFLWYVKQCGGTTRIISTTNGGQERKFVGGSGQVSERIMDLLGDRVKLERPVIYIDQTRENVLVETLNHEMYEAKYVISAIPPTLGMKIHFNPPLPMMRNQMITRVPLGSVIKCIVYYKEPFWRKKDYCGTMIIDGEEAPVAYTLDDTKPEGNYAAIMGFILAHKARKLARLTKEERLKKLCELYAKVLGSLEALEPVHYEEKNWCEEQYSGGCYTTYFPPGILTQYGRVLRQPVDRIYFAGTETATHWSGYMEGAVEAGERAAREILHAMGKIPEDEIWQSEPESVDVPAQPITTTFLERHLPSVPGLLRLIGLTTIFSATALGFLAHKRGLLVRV
pKi: −log10 of the molar value.
QUANTITY: pKi

> print(dat)
                                   compound  subject.of.test  experimental.result
1  N[C@H]1CCN(C(=O)CNC2CC2c2cc(F)cc(F)c2OCc2ccccc2)C1 (stereo partly specified)   UniProt:P27338                 4.48

====

Target: Lysine-specific histone demethylase 1B (Mus musculus, UniProt Q8CIG3)
Sequence (Q8CIG3 whole entry): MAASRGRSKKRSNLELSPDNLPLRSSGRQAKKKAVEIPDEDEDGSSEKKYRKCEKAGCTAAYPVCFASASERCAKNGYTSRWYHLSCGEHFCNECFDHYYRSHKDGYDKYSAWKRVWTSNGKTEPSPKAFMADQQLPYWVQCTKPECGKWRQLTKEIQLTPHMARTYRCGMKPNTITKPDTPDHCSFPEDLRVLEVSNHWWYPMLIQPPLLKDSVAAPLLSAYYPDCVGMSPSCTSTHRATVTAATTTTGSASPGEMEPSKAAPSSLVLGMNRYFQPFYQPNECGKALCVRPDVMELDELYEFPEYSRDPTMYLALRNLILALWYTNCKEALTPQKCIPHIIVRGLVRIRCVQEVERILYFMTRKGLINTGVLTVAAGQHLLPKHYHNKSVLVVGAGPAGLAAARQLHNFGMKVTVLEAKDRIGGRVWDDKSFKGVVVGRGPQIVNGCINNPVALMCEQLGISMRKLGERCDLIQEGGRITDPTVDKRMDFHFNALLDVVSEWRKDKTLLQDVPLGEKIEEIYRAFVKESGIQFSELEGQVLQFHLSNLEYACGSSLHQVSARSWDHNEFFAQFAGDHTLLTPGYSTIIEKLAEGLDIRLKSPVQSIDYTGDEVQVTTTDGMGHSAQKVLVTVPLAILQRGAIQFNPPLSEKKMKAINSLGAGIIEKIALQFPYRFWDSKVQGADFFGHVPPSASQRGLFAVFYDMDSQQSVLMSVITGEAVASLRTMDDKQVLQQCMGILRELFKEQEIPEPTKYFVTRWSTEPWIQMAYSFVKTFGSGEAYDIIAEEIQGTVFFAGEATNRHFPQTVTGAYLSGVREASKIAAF
QUANTITY: Ki (µM)

> print(dat)
           structure.as.smiles                           subject.of.test  experimental.result
1  N[C@@H]1C[C@H]1c1ccc(Br)cc1  Lysine-specific histone demethylase 1B (Mus musculus, UniProt Q8CIG3)                   61
2   N[C@H]1C[C@H]1c1ccc(Br)cc1  Lysine-specific histone demethylase 1B (Mus musculus, UniProt Q8CIG3)                   82

====

molecular target: Amine oxidase [flavin-containing] A (Homo sapiens)
Sequence (P21397 whole entry): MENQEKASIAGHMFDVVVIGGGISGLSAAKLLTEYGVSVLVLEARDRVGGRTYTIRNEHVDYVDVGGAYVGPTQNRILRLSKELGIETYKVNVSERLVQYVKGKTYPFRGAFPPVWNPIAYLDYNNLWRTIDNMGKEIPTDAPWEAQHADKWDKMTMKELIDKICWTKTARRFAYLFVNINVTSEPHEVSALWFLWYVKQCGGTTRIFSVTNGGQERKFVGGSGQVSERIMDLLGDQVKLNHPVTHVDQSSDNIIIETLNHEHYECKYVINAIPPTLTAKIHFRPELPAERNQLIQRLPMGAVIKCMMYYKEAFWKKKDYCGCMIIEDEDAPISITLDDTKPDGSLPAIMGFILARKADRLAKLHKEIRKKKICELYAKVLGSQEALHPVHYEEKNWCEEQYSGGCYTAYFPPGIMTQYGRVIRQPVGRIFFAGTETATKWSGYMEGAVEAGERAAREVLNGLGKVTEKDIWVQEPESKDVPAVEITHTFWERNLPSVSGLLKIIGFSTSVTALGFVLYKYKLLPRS
pKi: −log10 of the molar value.
QUANTITY: pKi

> print(dat)
                                   compound                           subject.of.test  experimental.result
1  NC1CC1c1c(F)c(F)c(F)c(F)c1F (stereo unspecified)  Amine oxidase [flavin-containing] A (Homo sapiens)                 4.57

Recorded values, source ChEMBL document CHEMBL5316272.
